The measurements presented in this section are drawn from the nanobody polyreactivity screen of Harvey et al. (2022).

Test protocol: yeast display, Sf9 membrane polyspecificity reagent, FACS + sequencing; frameworks hold sequencing errors
Result type: polyreactivity (PSR sort gate)

[[record]]
sequence_code = "QVQLVESGGGLVQAGGSLRLSCAASGSTFTLYAMGWYRQAPGKERELVASITASDGSTSYADSVKGRFTISRDNAKNTVYLQMNSLKPEDTAVYYCAARYRVRGISYYYWGQGTQVTVSS"
result_type = "polyreactivity (PSR sort gate)"
meas_value = "low polyreactivity"

[[record]]
sequence_code = "QVQLVESGGGLVQAGGSLRLSCAASGSTFAANAMGWYRQAPGKERELVAAMTSSGGSTYYADSVKGRFTISRDNAKNTVYLQMNSLKPEDTAVYYCNKDIERYVRIYDSWGQGTQVTVSS"
result_type = "polyreactivity (PSR sort gate)"
meas_value = "low polyreactivity"

[[record]]
sequence_code = "QVQLVESGGGLVQAGGSLRLSCAASGFIFGYYAMGWYRQAPGKERELVAAITGGGSTYYADSVKGRFTISRDNAKNTVYLQMNSLKPEDTAVYDCNADYGDGEYDYWGQGTQVTVSS"
result_type = "polyreactivity (PSR sort gate)"
meas_value = "low polyreactivity"


* * *

Test protocol: yeast display, Sf9 membrane polyspecificity reagent, FACS + sequencing; frameworks hold sequencing errors
Result type: polyreactivity (PSR sort gate)

Guide cases for polyreactivity (PSR sort gate), answers given:
[[record]]
sequence_code = "QVQLVESGGGLVQAGGSLRLSCAASGSTFAYNTMGWYRQAPGKERELVAAISQRGGSTYADSVKGRFTISRDNAKNTVYLQMNSLKPEVTAVYYCNKRNVYYSYPFDYDYWGQGTQVTVSS"
meas_value = "low polyreactivity"

[[record]]
sequence_code = "QVQLVESGGGLVQAGGSLRLRSAASGGTIARYAMGWYRQATGKERELVAAITKSRDLTYYADSVKGRFTISRDSAKNTVYLQMNSLKPEDTAVYYCARPPSTGYQGGYDYWGQGTQVTVSS"
meas_value = "high polyreactivity"

[[record]]
sequence_code = "QVQLVESGGGLVQAGGSLRLICAASGSIFVYNAMGSYRQAPAKERELVAAISQRGGSTYYADSVKGRFTISRDNAKNTVYLQMKSLKPEDTAVYYCAAGPGDSGDDYWGQGTQVTVSS"
meas_value = "low polyreactivity"

[[record]]
sequence_code = "QVQLVESGGGLVQAGGSLRLSCAASGSIYTNAMGWYRQAPGKERELVAAISKRGGSTNYADSVKGRFTISRDNAKNTVYLQMNSLKPEDTAVYYCNRTGSTGYVQVWRPGDYWGQGTQVTVSS"
meas_value = "high polyreactivity"


Input: Query (sequence): `QVQLVESGGGLVQAGGSLRLSCAASGRIFSRNAMGWYRQAPGKERELVAAISRSGGSTYYADSVKGRFTISRDNAKNTVYLQMNSLKPEDTAVYYCNTRYRPVKGSGPRYDYWGQGTQVTVSS` ; field requested: polyreactivity (PSR sort gate)
Output: low polyreactivity

Input: Field request: polyreactivity (PSR sort gate) | item: `QVQLVETGGGLVQAGGSLRLSCAASGRTFGNYAMGWYRQAPGKERELVAAITSAGRTYYADSVKGRFTISRDNAKNTVYLQMNSLKPEDTAVYYCAVSVIYWSGSQVSVEYYYWGQGTQVTVSS`
Output: low polyreactivity

Input: Requested field: polyreactivity (PSR sort gate). Item: `QVQLVESGGGLVQAGGSLRLSCAASGSIIFVNAMGWYRQAPGKERELVADISSGGSTNYADSVKGRFTISRDNAKNTVYLLMNSLKPEDTAVYYCNTDEPPIYERFPYDYWGQGTQVNVSS`
Output: low polyreactivity

Input: # input sequence: `QVQLVESGGGLVQAGGSLRLSCAASGSTFWYYGMGWYRQAPGKERELVAAITRGGSTYYADSVKGRFTISRDNAKNTVYLQMNSLKPEDTAVYYCAARPRYRAPYGYWGQGTQVTVSS` ; wanted: its polyreactivity (PSR sort gate)
Output: high polyreactivity

Input: # input sequence: `QVQLVESGGGLVQAGGSLRLSCAASGSTFYFNAMGWYRQAPGKERELVATISDNDGSTNYADSVKGRFTISRDNAKNTVYLQMNSLKPEDTAVYYCNADWYYYYEEDDYWGQGTQVTVSS` ; wanted: its polyreactivity (PSR sort gate)
Output: low polyreactivity

Input: # polyreactivity (PSR sort gate) lookup, item `QVQLVESGGGLVQAGGSLRLSCAASGLTFLDYAMGWYRPAPGKERELVAAITSGGSTNYADSVKGRFTISRDNAKNTVYLQMNSLKPEDTAVYYCATDLEVSAYDYWGQGTQVTVSS`
Output: low polyreactivity

Input: Give the measured polyreactivity (PSR sort gate) of `QVQLVESGGGLVQAGGSLRLSCAASGRIFYINAMGWYRQAPGKERELVASITGSGGRTYYADSVKGRFTISRDNAKNTVYLQMNSLKPEDTAVYYCNADLYVGYLYYLYDYWGQGTQVSVSS` .
Output: low polyreactivity

* * *

Test protocol: yeast display, Sf9 membrane polyspecificity reagent, FACS + sequencing; frameworks hold sequencing errors
Result type: polyreactivity (PSR sort gate)

[[record]]
sequence_code = "QVHLVESGGGLVQAGGSLRLSCAAYGFIFYPYAMGWNRQEPGKERELVAAIDWNGGGTYYADSVKGRFTISRDNAKNTVYLQMNSLKPEDTAVYYCNTYGAYTFDYWGQGTQVTVSS"
meas_value = "high polyreactivity"

[[record]]
sequence_code = "QVQLVESGGGLVQAGGSLRLSCAASGSIFSAYSMGWYRQAPGKERELVAAISKSGSSTYYADSVKGRFTISRDNANNTVYFQMNSLKPEDTAVYYCAAKRAGPYGITKGMDYWGQGTQVSVSS"
meas_value = "high polyreactivity"

[[record]]
sequence_code = "QFQLVESGGGLVQAGSRLRLICAASGSTFKYYTMGWYRQAPGKERELVATIRGSGTTYADSVKGRFTISRDNAKNTVYLQMNSLKPEDTAVYYCARLPPADMDYWGQATQVTVSS"
meas_value = "low polyreactivity"

[[record]]
sequence_code = "QVQLQESGGGLVQAGGSLRQSYAASGYIFPYLAMGWYRQAPGKEREFVAAIGRGSTNNYADSVKGRFTISRDNAKNTAYQQMNSLKPEDTAVYYCAGAASPLTRHLYWGQGNQVTVSS"
meas_value = "low polyreactivity"

[[record]]
sequence_code = "QVQLVESGGGLVQAGGSLRLSCAASGSTFSVYAMGWYRQAPGKERELVATITWNGGRTYYADSVKGRFTISRDNAKNTVYLQMNSLKREDTAVYYCASPWLKPGNGIYGGYGYWGQGTQVTVSS"
meas_value = "high polyreactivity"

[[record]]
sequence_code = "QVQLVESGGGLVQAGGSLRLSCAGSGRIFFWYVMGWYRQAPGKERELVAAISSGGRTYYADSVKGRFTISRDNAKNTVYLQMNSLKPEDTAVYYCAAVRRYLKAAYGYWGQGTQVTVSS"
meas_value = "low polyreactivity"

[[record]]
sequence_code = "QVQLVESGGGLVQAGGTLRLICAASGFTISKYAMGWYRQAPGKERELVAVISSGGLTNYADSVKGRFTISRDNAKNTVYLQMNSLKPEDSEVYYCAAIGWRTRSRFVYWGQGTQVTVAS"
meas_value = "high polyreactivity"

[[record]]
sequence_code = "QVQLVESGGGLVQAGGSLRLSCAASGFTFTYNAMGWYRKAPGKERELVAALTANGGGTNYADSVKGRFTISRDNAKNTVYLQMNSLKPEDTAVYYCAATIVVAVFESLGFYWYTEDNYWGQGTQVTVSS"
meas_value = "low polyreactivity"


Input: Recorded polyreactivity (PSR sort gate) for `QVQLVESGGGLVQAGGSLRLSCAASGFTFRYYAMGWYRQAPGKEREFVAAISWSGGSTYYADSVKGRFTISRDNAKNTVYLQMNSLKPEDTAVYYCNRVPRARKGDYWGQGTQVTVSS` , please?
Output: high polyreactivity

Input: May I ask what polyreactivity (PSR sort gate) has been recorded for `QVQLQESGGGLVQAGGSLRLSCAASGSIFKVVDMGLYRQEPAKEREFVATIGEGGNTYYADSVKGRFTISRDNAKNTVFLQMNSLKPEDTAVYFYAVVLGTSYRYTYWGQGTQVTVSS` ?
Output: low polyreactivity

Input: Suppose we examine the sequence `QVQLVESGGGLVQAGGSLRLSCAASGIIFPNYAMGWYRQAPGKERELVAAITTSGTSTYYADSVKGRFTISRDNAKNTVYLQMNSLKPEDTAVYYCAARPTGHWGGRYYYWGQGTQVTVSS` ; what polyreactivity (PSR sort gate) value has been reported?
Output: high polyreactivity

* * *

Test protocol: yeast display, Sf9 membrane polyspecificity reagent, FACS + sequencing; frameworks hold sequencing errors
Result type: polyreactivity (PSR sort gate)

[[record]]
sequence_code = "QVQLVESGGGLVQAGGSLRLSCAASGLTFVSYAMGWSRQAPGQEREFVAAINRSGGSPYYADSVKGRFTISRDNAKTTVYLQMNSLKPEDTALYYCAARRNLAYYHSGYWGQGTQVTVSS"
meas_value = "high polyreactivity"

[[record]]
sequence_code = "QVQLVESGGGLVQAGGSLRLTCAASGRTFWYYAMGWYRQAPGKERELVAASYYSGDGTYYADSVKGRFTISRDNAKNTVYLQMTSLKPEDTALYYGAAEWSDPTLPTAWSEYEYWGQGTHVTVSS"
meas_value = "high polyreactivity"

